Test system: native GABAARs
assay.info: GABA-evoked whole-cell currents in cultured hippocampal neurons
Assay type: cell-based, rat
condition.context: read-out: EC50 of AP5 enhancement of GABA currents; GABA 0.5 μM
measurement.label: pEC50
Numbers only, as −log10 of the molar value.

QUERY: Look up pEC50 for this compound: N[C@H](CCCP(=O)(O)O)C(=O)O [AP5, D-2-amino-5-phosphonovaleric acid]
RESULT: 3.82

* * *

Exercise: state measured GABA currents in presence of ligand, compared with GABA alone for each of the compounds provided.
assayed.target: rat α1β2γ2 GABAARs (Rattus norvegicus, UniProt P62813+P63138)
Construct: expressed in transfected cells; host or cells: HEK293
Sequence (P18508 39-466 partner, one chain of several): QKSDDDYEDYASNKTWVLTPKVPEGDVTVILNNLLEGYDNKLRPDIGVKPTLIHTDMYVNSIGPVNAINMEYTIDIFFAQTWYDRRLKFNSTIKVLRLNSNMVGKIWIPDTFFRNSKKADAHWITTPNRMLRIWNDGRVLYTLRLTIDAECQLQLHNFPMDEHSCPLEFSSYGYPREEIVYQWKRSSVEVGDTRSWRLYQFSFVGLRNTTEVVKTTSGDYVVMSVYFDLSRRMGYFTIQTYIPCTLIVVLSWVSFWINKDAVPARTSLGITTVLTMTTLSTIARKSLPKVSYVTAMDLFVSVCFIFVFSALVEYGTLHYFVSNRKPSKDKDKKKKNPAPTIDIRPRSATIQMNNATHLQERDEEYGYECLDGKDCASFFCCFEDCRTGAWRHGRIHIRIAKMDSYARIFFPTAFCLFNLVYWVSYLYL
assay.info: Whole-cell patch clamp of GABA-evoked currents, HEK293 cells expressing wild-type α1β2γ2
Assay type: cell-based
Give bare numbers, in %.

Here are 3 compounds together with their reported answers.
INSERT INTO measurements (compound, units_label, quantitative_result) VALUES
  ('Cc1onc(O)c1CC(N)C(=O)O (stereo not shown) [AMPA]', '%', 165.8),
  ('CN[C@H](CC(=O)O)C(=O)O [NMDA, N-methyl-D-aspartate]', '%', 171.7),
  ('C=C(C)[C@H]1CN[C@H](C(=O)O)[C@H]1CC(=O)O [kainic acid]', '%', 188.7);

QUERY: Look up GABA currents in presence of ligand, compared with GABA alone for this compound: N[C@@H](CCC(=O)O)C(=O)O [glutamate, Glutamate]
RESULT: 169.3

* * *

assayed.target: rat α1β2 GABAARs (Rattus norvegicus, UniProt P62813+P63138)
Sequence (P62813 28-455): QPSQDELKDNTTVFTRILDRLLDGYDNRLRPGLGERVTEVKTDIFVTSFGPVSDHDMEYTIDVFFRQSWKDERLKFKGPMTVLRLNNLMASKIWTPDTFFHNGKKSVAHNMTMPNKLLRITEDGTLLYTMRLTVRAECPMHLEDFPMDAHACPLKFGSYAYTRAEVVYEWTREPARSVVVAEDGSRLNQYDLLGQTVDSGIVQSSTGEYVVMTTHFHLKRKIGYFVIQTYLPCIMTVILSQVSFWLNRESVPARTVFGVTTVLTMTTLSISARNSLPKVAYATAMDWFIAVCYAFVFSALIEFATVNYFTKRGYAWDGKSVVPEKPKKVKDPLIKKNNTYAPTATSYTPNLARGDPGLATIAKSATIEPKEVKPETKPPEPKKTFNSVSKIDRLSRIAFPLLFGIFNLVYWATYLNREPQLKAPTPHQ
Sequence (P63138 26-474): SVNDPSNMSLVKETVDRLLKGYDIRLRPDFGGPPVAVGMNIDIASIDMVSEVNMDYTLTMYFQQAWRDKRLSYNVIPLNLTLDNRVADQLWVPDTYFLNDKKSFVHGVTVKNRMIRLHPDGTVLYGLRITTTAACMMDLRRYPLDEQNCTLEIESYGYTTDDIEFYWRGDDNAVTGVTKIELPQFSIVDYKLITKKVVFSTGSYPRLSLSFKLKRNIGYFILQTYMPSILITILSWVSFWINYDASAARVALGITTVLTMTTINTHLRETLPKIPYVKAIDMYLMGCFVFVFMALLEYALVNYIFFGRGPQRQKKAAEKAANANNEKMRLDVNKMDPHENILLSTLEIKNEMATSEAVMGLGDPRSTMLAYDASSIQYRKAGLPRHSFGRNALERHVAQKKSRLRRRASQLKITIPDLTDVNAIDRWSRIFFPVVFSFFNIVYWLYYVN
assay.info: Whole-cell patch clamp of GABA-evoked currents, HEK293 cells expressing α1β2
condition.context: potentiation of 1 μM GABA-induced currents; read-out: EC50 of glutamate potentiation
pEC50: −log10 of the molar value.
measurement.label: pEC50

QUERY: Look up pEC50 for this molecule: N[C@@H](CCC(=O)O)C(=O)O [glutamate, Glutamate]
RESULT: ~3.74

Values were extracted from paper PMC9527238.
